Biological target: mitochondrial pyruvate carrier (MPC) (Mus musculus, UniProt P63030+Q9D023)
Construct: 50 µg of mitochondrial protein was added to the chambers of an Oxygraph O2K; from tissue; host or cells: heart mitochondria of C57Bl/6J mice
Sequence (P63030 2-109 limits assumed): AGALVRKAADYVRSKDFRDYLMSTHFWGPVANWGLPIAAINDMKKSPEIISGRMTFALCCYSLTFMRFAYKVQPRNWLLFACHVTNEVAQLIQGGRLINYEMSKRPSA
Sequence (Q9D023 1-127): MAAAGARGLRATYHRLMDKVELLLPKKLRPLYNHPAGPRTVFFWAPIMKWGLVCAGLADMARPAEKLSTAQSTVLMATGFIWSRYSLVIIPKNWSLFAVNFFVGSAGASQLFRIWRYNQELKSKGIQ
Test: Inhibition of pyruvate-stimulated respiration (OCR) of isolated heart mitochondria
Assay type: biochemical, mice
Details: Table 1; inhibiting mitochondrial pyruvate respiration, isolated heart mitochondria; read-out: IC50
pIC50: −log10 of the molar value.
Reported pIC50 values for the following molecules.
measurementName: pIC50

> print(dat)
                                   molecule  measurementname  numericreadout
1  Cc1ccc(-c2c[nH]nc2/C=C(\C#N)C(=O)O)cc1 [BE2623]            pIC50            6.14
2  Cc1nn(-c2ccccc2)c(C)c1/C=C(\C#N)C(=O)O [BE1980]            pIC50            6.79
3  N#C/C(=C\c1n[nH]cc1-c1ccccc1)C(=O)O [BE2617]            pIC50            7.41
4  N#C/C(=C\c1cn(-c2ccccc2)c2ccccc12)C(=O)O [UK-5099, reference compound]            pIC50            6.62
